- TEST METHOD NOTES: Cytotoxicity in HepG2 cells, Resazurin viability assay
- EXPERIMENTAL CONTEXT: human, HepG2 cells, HepG2 4 days CC50 (μM), incubated for 4 days, Resazurin assay
MEASURED ATTRIBUTE: CC50 at 4 days

[[record]]
molecule = "Cn1cc(S(=O)(=O)N[C@H]2C[C@@H](O)C2)cc1C(=O)Nc1ccc(F)c(F)c1"
measured_result = "> 25 µM"

[[record]]
molecule = "C[C@@H](NS(=O)(=O)c1cc(C(=O)Nc2ccc(F)c(F)c2)n(C)c1)C(F)(F)F"
measured_result = "> 25 µM"

[[record]]
molecule = "CC(C)NS(=O)(=O)c1cn(C)c(C(=O)Nc2ccc(F)c(Br)c2)c1F"
measured_result = "> 25 µM"


Alright, here's another molecule for you.
[Q] Give its CC50 at 4 days value. Item: `Cn1cc(S(=O)(=O)NC2(C)COC2)cc1C(=O)Nc1ccc(Cl)c(F)c1`
[A] > 25 µM

---

- Tested on: HepG2 cells
- TEST METHOD NOTES: Cytotoxicity in HepG2 cells, Resazurin viability assay
- EXPERIMENTAL CONTEXT: read-out: HepG2 4 days CC50; HepG2 cells, incubated for 4 days, Resazurin assay
CC50 by entry:

[[record]]
compound = "Cn1cc(S(=O)(=O)NC2CCCC2(F)F)cc1C(=O)Nc1ccc(F)c(Cl)c1F (single isomer, unassigned) [Compound 236b]"
subject_of_test = "HepG2 cells"
measured_result = "> 25 µM"


[Q] Please report the recorded CC50 for CC(NS(=O)(=O)c1cc(C(=O)Nc2ccc(F)c(C#N)c2)n(C)c1)C(F)F (single isomer, unassigned) [Compound 200b] .
[A] > 25 µM

[Q] GET /values?readout=CC50&item= Cn1cc(S(=O)(=O)NC2(C(F)(F)F)CCOC2)cc1C(=O)Nc1ccc(F)c(C#N)c1 (single isomer, unassigned) [Compound 228b]
[A] > 25 µM

[Q] I am curious: what CC50 value has been reported for Cn1cc(S(=O)(=O)NC2CCC(F)(F)C2)cc1C(=O)Nc1cc(F)c(F)c(Cl)c1 (single isomer, unassigned) [Compound 166b] ?
[A] 21.3 µM

[Q] Param item = CCC(C)(NS(=O)(=O)c1cc(C(=O)Nc2cc(F)c(F)c(Cl)c2)n(C)c1)C(F)(F)F (single isomer, unassigned) [Compound 165b] ; retrieve measured CC50.
[A] 4.8 µM

[Q] Sample CC(CC(F)(F)F)NS(=O)(=O)c1cc(C(=O)Nc2cc(F)c(F)c(Cl)c2)n(C)c1 (single isomer, unassigned) [Compound 169b] — what was its CC50?
[A] 17.1 µM

---

- TEST METHOD NOTES: Cytotoxicity in HepG2 cells, Resazurin viability assay
- EXPERIMENTAL CONTEXT: human, HepG2 cells, HepG2 4 days CC50 (μM), incubated for 4 days, Resazurin assay
Listing of recorded CC50 at 4 days by entry.

[[record]]
molecule = "Cn1cc(S(=O)(=O)NC2(C(F)(F)F)CCC2)cc1C(=O)Nc1cc(F)c(F)c(Cl)c1"
measured_result = "11.3 µM"

[[record]]
molecule = "Cc1c(F)ccc(NC(=O)c2cc(S(=O)(=O)NC(C)(C)C(F)(F)F)cn2C)c1F"
measured_result = "> 25 µM"

[[record]]
molecule = "Cn1cc(S(=O)(=O)NC(C)(C)C)c(Cl)c1C(=O)Nc1ccc(F)c(Cl)c1F"
measured_result = "> 25 µM"

[[record]]
molecule = "CC[C@@H](C)NS(=O)(=O)c1cn(C)c(C(=O)Nc2ccc(F)c(C#N)c2)c1Cl"
measured_result = "> 25 µM"


[Q] Record request: CC50 at 4 days value, item `Cn1cc(S(=O)(=O)NC2(C(F)(F)F)CCOCC2)cc1C(=O)Nc1ccc(F)c(Cl)c1F`
[A] > 25 µM

[Q] Query: CC50 at 4 days; subject: `Cc1c(S(=O)(=O)NC2(C)COC2)cc(C(=O)Nc2cc(F)c(F)c(Cl)c2)n1C`
[A] > 25 µM

[Q] // returns reported CC50 at 4 days for input Cn1cc(S(=O)(=O)NC2CCC(F)(F)C2)cc1C(=O)Nc1cc(F)c(F)c(Cl)c1 (single isomer, unassigned) [Compound 166a]
[A] 17.9 µM

---

- Test system: HBV
- TEST METHOD NOTES: Anti-HBV activity, HepG2.117 inducibly HBV producing cell line (Tet-off), intracellular HBV DNA by realtime PCR
- Assay type: cell-based
- EXPERIMENTAL CONTEXT: Hepatitis B virus, HepG2.117, 72 h, read-out: HepG2 117 EC50 (μM)
MEASURED ATTRIBUTE: EC50

[Q] Which measured EC50 value corresponds to Cn1cc(S(=O)(=O)NC2(C)COC2)cc1C(=O)Nc1ccc(C#N)c(C(F)(F)F)c1 [Compound 51] ?
[A] > 1 µM

---

Measured CC50 at 4 days values are reported for all entries that follow.
- TEST METHOD NOTES: Cytotoxicity in HepG2 cells, Resazurin viability assay
- EXPERIMENTAL CONTEXT: human, HepG2 cells, HepG2 4 days CC50 (μM), incubated for 4 days, Resazurin assay

// known answers, use as guide
[[record]]
compound = "CC[C@@H](C)NS(=O)(=O)c1cc(C(=O)Nc2ccc(F)c(C#N)c2)n(C)c1 [Compound 294]"
measured_result = "> 25 µM"

[[record]]
compound = "C[C@@H](NS(=O)(=O)c1cn(C)c(C(=O)Nc2ccc(F)c(Cl)c2F)c1F)C(F)(F)F [Compound 185]"
measured_result = "> 25 µM"


Attention now turns to another entry.
[Q] Which measured CC50 at 4 days value corresponds to C[C@@H](NS(=O)(=O)c1cn(C)c(C(=O)Nc2cc(Cl)c(F)c(C#N)c2)c1F)C(F)(F)F [Compound 313] ?
[A] > 25 µM

---

- TEST METHOD NOTES: Cytotoxicity in HepG2 cells, Resazurin viability assay
- EXPERIMENTAL CONTEXT: human, HepG2 cells, HepG2 4 days CC50 (μM), incubated for 4 days, Resazurin assay
List of CC50 at 4 days values.

Examples from the recorded data:
[[record]]
compound = "C[C@H](NS(=O)(=O)c1cc(C(=O)Nc2ccc(F)c(Br)c2F)n(C)c1)C(F)(F)F"
measured_result = "> 25 µM"

[[record]]
compound = "Cn1cc(S(=O)(=O)NC2(C(F)(F)F)CCOC2)cc1C(=O)Nc1ccc(F)c(Cl)c1F (centres unmarked)"
measured_result = "> 25 µM"

[[record]]
compound = "Cn1cc(S(=O)(=O)N[C@H]2CCOC2)cc1C(=O)Nc1ccc(F)c(C(F)(F)F)c1"
measured_result = "> 25 µM"

[[record]]
compound = "Cc1cc(NC(=O)c2cc(S(=O)(=O)NC(C)C)cn2C)ccc1F"
measured_result = "> 25 µM"


[Q] Quick one: CC50 at 4 days for `Cn1cc(S(=O)(=O)NC2(C(F)(F)F)CCC2)c(Cl)c1C(=O)Nc1ccc(F)c(Cl)c1` ?
[A] > 25 µM

[Q] CC50 at 4 days lookup needed for `Cn1cc(S(=O)(=O)NC(C)(C)C)cc1C(=O)Nc1ccc(F)c(OC(F)(F)F)c1` , thanks.
[A] > 25 µM

[Q] Can you look up the measured CC50 at 4 days of `C[C@H](NS(=O)(=O)c1cc(C(=O)Nc2ccc(F)c(Br)c2)n(C)c1)C(F)(F)F` for me?
[A] > 25 µM

[Q] Recorded CC50 at 4 days for `CC(C)NS(=O)(=O)c1cn(C)c(C(=O)Nc2ccc(F)c(Cl)c2F)c1F` , please?
[A] > 25 µM

---

- TEST METHOD NOTES: Cytotoxicity in HepG2 cells, Resazurin viability assay
- EXPERIMENTAL CONTEXT: human
MEASURED ATTRIBUTE: CC50 at 4 days

[Q] Report CC50 at 4 days for `Cn1cc(S(=O)(=O)NC2(C)COC2)cc1C(=O)Nc1ccc(C#N)c(C(F)(F)F)c1` please.
[A] > 25 µM

---

- TEST METHOD NOTES: Cytotoxicity in HepG2 cells, Resazurin viability assay
- EXPERIMENTAL CONTEXT: human, HepG2 cells, HepG2 4 days CC50 (μM), incubated for 4 days, Resazurin assay
MEASURED ATTRIBUTE: CC50 at 4 days

Worked cases, answers included:
[[record]]
smiles_representation = "C[C@@H](NS(=O)(=O)c1cn(C)c(C(=O)Nc2cccc(Br)c2)c1F)C(F)(F)F"
measured_attribute = "CC50 at 4 days"
measured_result = "> 25 µM"

[[record]]
smiles_representation = "Cc1cccc(F)c1NC(=O)c1c(Cl)c(S(=O)(=O)N[C@H](C)C(F)(F)F)cn1C"
measured_attribute = "CC50 at 4 days"
measured_result = "> 25 µM"

[[record]]
smiles_representation = "CC(C)NS(=O)(=O)c1cc(C(=O)Nc2cc(F)c(F)c(Cl)c2)n(C)c1"
measured_attribute = "CC50 at 4 days"
measured_result = "> 25 µM"


[Q] Given the entry `C[C@@H](NS(=O)(=O)c1cn(C)c(C(=O)Nc2ccc(F)c(C#N)c2)c1F)C(F)(F)F` , report its measured CC50 at 4 days.
[A] > 100 µM

The values you see were collected from patent US9884818B2.
